The measurements presented in this section are drawn from the NTF2 design screens of Basanta et al. (2020).

- MEASUREMENT DESCRIPTION: protease stability score; higher = more stable; yeast display proteolysis, trypsin and chymotrypsin;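 also: relative to predicted unfolded state with 0 unfolded-like and 1 meaning tenfold more protease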
MEASURED METRIC: protease stability score
// print number alone

Example results:
- SEQ TEXT: "DEEEKDMRHVLKLWVNEFLTGNEKNLSELMDPNVRVDIDGKQLHGRETLSHKIVEDAREARVRLEVESIRVVNGKAHVDVVLRFHQGDKSDHREIRVVFRKVDGRWLLHSLEVH"
  VALUE MEASURED: 1.37
- SEQ TEXT: "DEDEERIREVVERFLRDWETGDEKSLKHLLDPNVRMIIDGVDIVGREEALRLMKKLVDDLGIKHVHFHRVRLDVQGDKVRSEVDGEFEVGDKHTKVHTLLILRKVDGKWIFESVHMDHK"
  VALUE MEASURED: 2.27
- SEQ TEXT: "DEDKDLIDLHFEIYQQVVLTGDFRKFRRLFDPNTRWEIGDKEFHGREHLSKLHKDLLEHLGVRVREVELHNFHIQGDKIHLDTRIHVHAENHHMIHITEIISTKIDGRWIITELRLR"
  VALUE MEASURED: 0.826
- SEQ TEXT: "SEHEELLERIAEFVMKSWITGNEELDERLADPDARSIVNGKHLHGRELHSEFLRKLLEQLRIHHIHMTDRRVFDGRAIEHSVVHGEIDGVKVTVEVHIRVVVINGRLKSLRIEIR"
  VALUE MEASURED: 0.149
- SEQ TEXT: "STEEREVYEWVHELLNAFNTGDEDFYYERMDPHVRFESQFNGKELDIVGREKVLKWTKTFWDDLGVDHSKLRSFRIQGDKLILHMEVTINGRHIQVDFFHVIVDGKLHSEEIRIH"
  VALUE MEASURED: 0.649

// lookup protease stability score for DEDEKYLKEFLRILIEARRTGDEQLLERLMDPRVKLDNENHFSHGREDAVRHLNEHSKEARLESVEVHDVRVFNGVILWDVRIHGDIDGRRDTFNVIIIILKVNGRWRLREFIFT
1.39

// same read-out, input: DEMKEWIRELIERWTHAFLTGDEDELKRLVDPHAKLDINGRDVIGREDFVEHLRRLFEELGVKHVSSRMRDIKIVNGRAHVDSEFRLRVGEKQESHRMHIISDKYNGRWVIQSIHVE
1.93

Ok, now SHEDELIEKTLHITLEAYTTGDEHTVTRMLDPHVKILFNGVELIGRELVWEHLKEIRMHWHHVHIEDIKRQGEKIHITGRLYMEIRQGDYRERSTYRTRIITLKINGRWFIESLEIN
1.95

What do we get for SEEEKEAHDWMEVWLELFHTGDEDMLEHMADPHTRIHVDGRKFHGRENYVRLVRHMRVHHFIERRVRIINGRIHIEGEARVNINGQEIDNHVQIHLNLVDGRLKTEHIKVK ?
0.927

And the next one, SEDEETARRIVKELLHDRLTGNEDRIRELADPDVRLIIGEFHMHGMDNFLRVLRFIYHHWRIHDTQMETHEIQGDKAYNHTIIDGEFDGKRHEWQIHILVLKVNGRWRLKTLELH ?
1.84

Can you check DEEREDVETHLRVLYDLILTGDEEDIRNLLDPHVRLDFNGKDIHGMERVSHHMRELRIERLEIKRWDVVNGRVHMDLHIVFHYGDKRRDTEVHVIMLKIDGRWHLESIHIK next?
2.21
